Molecular target: T1, ZFP SBS#1081 (synthetic, UniProt P08047)
T1 chain: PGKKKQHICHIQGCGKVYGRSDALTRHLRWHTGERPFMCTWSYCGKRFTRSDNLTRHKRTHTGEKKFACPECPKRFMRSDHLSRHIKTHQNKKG
Assay: EMSA
Settings: tags: MBP fusion
Measured endpoint: Kd (nM)
Numbers only; they are read as nM.

-- ask Quick one: Kd of GGGGAGGTG (dsDNA) DNA 1: GGGGAGGTG DNA 2: CACCTCCCC ?
-- reply 0.05

// data source = patent US20030068675
